Experiment: Plasma pharmacokinetics of ceralasertib (HPLC-MS/MS, NCA)
Type: in vivo, human
Settings: human, plasma, oral, 240 mg, 240 mg day 0; 12 h; read-out: Plasma concentration, individual patients
Protocol: Intensive PK sampling in part A occurred after a single dose from predose up to 24 to 72 hours and again at day 15 and day 29 of continuous dosing. Participants fasted for 1 hour before and 2 hours after dosing for PK assessment. In part B, sampling coincided with day 15 PD assessments. […] Evaluated PK […] maximum observed plasma concentration (Cmax), time to Cmax (tmax), and apparent terminal half-life (t1/2) calculated as ln/lambda-z where lambda-z (lz) is the apparent terminal phase rate- […]
observed_property: concentration at 12 h (ng/mL)
State the answer as a number, implicitly in ng/mL.

Qu. Fill in: concentration at 12 h of `C[C@@H]1COCCN1c1cc(C2([S@](C)(=N)=O)CC2)nc(-c2cc[nH]c3nccc2-3)n1` is ___
Ans. 4200
